target-entity: T1, human corticotrophin releasing hormone receptor type 2 (CRHR2) (human, UniProt Q13324 1-411)
T1 sequence (looked up): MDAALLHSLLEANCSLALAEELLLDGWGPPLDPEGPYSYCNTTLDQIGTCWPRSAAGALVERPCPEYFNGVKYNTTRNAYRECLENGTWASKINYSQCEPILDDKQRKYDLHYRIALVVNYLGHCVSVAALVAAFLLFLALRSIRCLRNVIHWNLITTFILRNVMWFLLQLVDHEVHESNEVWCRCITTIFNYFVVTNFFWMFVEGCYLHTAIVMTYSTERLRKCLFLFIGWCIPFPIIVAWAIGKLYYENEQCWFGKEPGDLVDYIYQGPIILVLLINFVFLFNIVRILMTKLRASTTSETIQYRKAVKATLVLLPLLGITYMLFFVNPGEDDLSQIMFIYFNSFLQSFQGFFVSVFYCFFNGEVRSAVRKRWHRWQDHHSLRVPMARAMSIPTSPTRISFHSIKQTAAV
procedure-details: cell-based or functional assay
Where no end group is shown, it is not given here.
measurement-type: pA50

# binder, pA50
measured = [
    ("TKFTLSLDVPTNIMNLLFNIAKAKNLRCQAAANAHLMAQI-NH2 [Cys-variant stresscopin-like peptide SEQ ID NO: 29]", "9.47 -log10(M)"),
    ("TKFTLSLDVPTNIMNLLFNICKAKNLRAQAAANAHLMAQI (NES-PEG (about 20 kDa) on Cys 21; C-terminal amide (-NH2)) [Pegylated Cys-variant stresscopin-like peptide with NES linker and PEG about 20 kDa SEQ ID NO: 75]", "8.24 -log10(M)"),
    ("TKFTLSLDVPTNIMNLLFNIAKAKNLRAQACANAHLMAQI-NH2 [Cys-variant stresscopin-like peptide SEQ ID NO: 32]", "9.41 -log10(M)"),
    ("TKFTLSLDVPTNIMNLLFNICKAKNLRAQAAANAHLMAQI-NH2 [Cys-variant stresscopin-like peptide SEQ ID NO: 22]", "9.17 -log10(M)"),
]

Any idea what its pA50 is? The binder is TKFTLSLDVPTNIMNLLFNIAKAKNLRAQAAANAHLMCQI (NES-PEG (about 20 kDa) on Cys 38; C-terminal amide (-NH2)) [Pegylated Cys-variant stresscopin-like peptide with NES linker and PEG about 20 kDa SEQ ID NO: 92]
8.12 -log10(M)

Look up pA50: TKFTLSLDVPTNIMNLLFNIACAKNLRAQAAANAHLMAQI (NES-PEG (about 20 kDa) on Cys 22; C-terminal amide (-NH2)) [Pegylated Cys-variant stresscopin-like peptide with NES linker and PEG about 20 kDa SEQ ID NO: 76]
6.84 -log10(M)

Fill in the blank: the reported pA50 of TKFTLSLDVPTNIMNLLFNIAKAKNLRAQAAANACLMAQI-NH2 [Cys-variant stresscopin-like peptide SEQ ID NO: 36] is ____.
9.1 -log10(M)

What does the record list as pA50 for TKFTLSLDVPTNIMNLLFNIAKAKNLRAQAAACAHLMAQI (NES-PEG (about 20 kDa) on Cys 33; C-terminal amide (-NH2)) [Pegylated Cys-variant stresscopin-like peptide with NES linker and PEG about 20 kDa SEQ ID NO: 87] ?
~6 -log10(M)

Fill in the blank: the reported pA50 of TKFTLSLDVPTNIMNLLFNIAKCKNLRAQAAANAHLMAQI-NH2 [Cys-variant stresscopin-like peptide SEQ ID NO: 24] is ____.
8.94 -log10(M)
